From: patent US11168073B2

- target-of-assay: recombinant human DAO (diamine oxidase) (Homo sapiens)
- Construct: purchased R&D systems
- Sequence (P19801 20-751): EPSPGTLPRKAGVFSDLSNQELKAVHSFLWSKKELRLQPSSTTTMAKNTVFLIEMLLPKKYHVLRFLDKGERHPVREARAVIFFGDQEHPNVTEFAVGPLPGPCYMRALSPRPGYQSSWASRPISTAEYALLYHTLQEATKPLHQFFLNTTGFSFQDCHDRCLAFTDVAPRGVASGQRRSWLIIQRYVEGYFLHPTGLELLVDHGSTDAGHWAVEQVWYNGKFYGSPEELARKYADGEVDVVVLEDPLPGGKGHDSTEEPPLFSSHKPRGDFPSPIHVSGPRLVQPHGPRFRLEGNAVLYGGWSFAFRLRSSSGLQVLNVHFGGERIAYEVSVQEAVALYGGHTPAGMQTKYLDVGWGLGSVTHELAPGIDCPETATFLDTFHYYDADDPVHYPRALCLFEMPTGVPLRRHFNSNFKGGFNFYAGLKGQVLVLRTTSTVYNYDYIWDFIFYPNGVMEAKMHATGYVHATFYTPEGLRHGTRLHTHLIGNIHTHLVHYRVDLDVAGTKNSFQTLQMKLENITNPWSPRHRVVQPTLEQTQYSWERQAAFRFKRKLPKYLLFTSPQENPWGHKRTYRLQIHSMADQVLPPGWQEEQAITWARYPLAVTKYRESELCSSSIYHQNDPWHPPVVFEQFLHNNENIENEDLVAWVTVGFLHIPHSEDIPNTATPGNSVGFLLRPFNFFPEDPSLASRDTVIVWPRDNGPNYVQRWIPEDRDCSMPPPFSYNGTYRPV
- measurement-description: Activity evaluation on recombinant human DAO (Amplex Red/HRP-coupled assay, 1 mM putrescine substrate)
- Assay type: biochemical
- condition-description: 1 mM putrescine, read-out: Inhibitory Activity (IC50, nM) DAO
Where a name gives a salt, the structure may show the parent alone.
# Lookup of reported IC50 keyed by entry

Worked cases, IC50 given:
CN(C)c1ccc(-c2cc(-n3cnn(CC(CN)=C(F)F)c3=O)ccn2)cn1 [Example 63, Trifluoroacetate] ... 110 nM
NCC(Cn1ncn(-c2cccc(-c3ccc4c(c3)OCO4)c2)c1=O)=C(F)F [Example 21, Trifluoroacetate] ... 6300 nM

Task: Enter reported IC50 observed with recombinant human DAO (diamine oxidase) (Homo sapiens) for NCC(Cn1ncn(-c2ccnc(-c3ccc(N4CCNCC4)cc3)c2)c1=O)=C(F)F [Example 62, Ditrifluoroacetate]
Output: 160 nM

Task: Enter reported IC50 observed with recombinant human DAO (diamine oxidase) (Homo sapiens) for NCC(Cn1ncn(Cc2ccc(-c3ccc4c(c3)COC(=O)N4)s2)c1=O)=C(F)F [Example 143, Trifluoroacetate]
Output: > 10000 nM

Task: Enter reported IC50 observed with recombinant human DAO (diamine oxidase) (Homo sapiens) for NCC(Cn1ncn(-c2cccc(-c3ccc(C(F)(F)F)nc3)n2)c1=O)=C(F)F [Example 48, Trifluoroacetate]
Output: 61 nM

Task: Enter reported IC50 observed with recombinant human DAO (diamine oxidase) (Homo sapiens) for Cc1cc(-c2ccc(CCn3cnn(CC(CN)=C(F)F)c3=O)s2)cc2c1NC(=O)CC2 [Example 178, Trifluoroacetate]
Output: 350 nM

Task: Enter reported IC50 observed with recombinant human DAO (diamine oxidase) (Homo sapiens) for CS(=O)(=O)c1ccc(-c2ccc(CCn3cnn(CC(CN)=C(F)F)c3=O)s2)cc1 [Example 173, trifluoroacetate]
Output: 260 nM

###

# Lookup of reported IC50 keyed by entry
- target-of-assay: recombinant human VAP-1 (Homo sapiens, UniProt Q16853)
- Construct: purchased R&D systems
- measurement-description: Activity evaluation on recombinant human VAP-1 (Amplex Red/HRP-coupled hydrogen peroxide assay, benzylamine substrate)
- Type: biochemical
- condition-description: recombinant human VAP-1; 30 min preincubation at 37° C.; 1 mM benzylamine; read-out: Inhibitory Activity (IC50, nM) human VAP-1
Counter-ions that a name gives are not always drawn.
Number only, in nM; omit the unit.

Worked cases, IC50 given:
Cn1c(-c2ccc(Cn3cnn(CC(CN)=C(F)F)c3=O)s2)cnc1Cl [Example 120, Trifluoroacetate] ... 6
NCC(Cn1ncn(Cc2ccc(-c3ccc4nonc4c3)s2)c1=O)=C(F)F [Example 129, Trifluoroacetate] ... 0.7
COc1cc(-c2ccc(Cn3cnn(CC(CN)=C(F)F)c3=O)s2)cc(OC)c1OC [Example 105, Trifluoroacetate] ... 1.5

Next, consider the following compound.
Task: Enter reported IC50 observed with recombinant human VAP-1 (Homo sapiens, UniProt Q16853) for Cc1ccc(Br)nc1-n1cnn(CC(CN)=C(F)F)c1=O [Example 15, Trifluoroacetate]
Output: 3

###

- target-of-assay: recombinant human MAO-B (monoamine oxidase-B) (Homo sapiens)
- Construct: purchased Sigma-Aldrich
- Sequence (P27338 whole entry): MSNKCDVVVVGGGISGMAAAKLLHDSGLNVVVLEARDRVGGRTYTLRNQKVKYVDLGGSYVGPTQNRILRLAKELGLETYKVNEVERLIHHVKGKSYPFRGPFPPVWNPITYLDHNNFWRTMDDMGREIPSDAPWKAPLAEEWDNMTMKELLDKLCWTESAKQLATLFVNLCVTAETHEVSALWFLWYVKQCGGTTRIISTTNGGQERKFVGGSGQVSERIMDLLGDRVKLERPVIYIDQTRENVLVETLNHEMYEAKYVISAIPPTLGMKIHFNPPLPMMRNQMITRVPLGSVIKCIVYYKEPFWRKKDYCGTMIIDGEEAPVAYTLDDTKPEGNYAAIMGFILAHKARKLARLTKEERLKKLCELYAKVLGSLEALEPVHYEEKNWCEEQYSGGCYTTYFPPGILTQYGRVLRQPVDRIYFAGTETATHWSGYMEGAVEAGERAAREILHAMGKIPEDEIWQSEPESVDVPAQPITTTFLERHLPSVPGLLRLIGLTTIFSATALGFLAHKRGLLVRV
- measurement-description: Activity evaluation on recombinant human MAO-B (Amplex Red/HRP-coupled assay, 1 mM benzylamine substrate)
- Format: biochemical
- condition-description: 1 mM benzylamine substrate, read-out: Inhibitory Activity (IC50, nM) MAO-B
Structures can show the parent of a compound that is named as a salt.
# Lookup of reported IC50 keyed by entry

Cc1c(-c2ccc(N3CCNCC3)cc2)cccc1-n1cnn(CC(CN)=C(F)F)c1=O [Example 254, Ditrifluoroacetate] ... > 100000 nM

Task: Enter reported IC50 observed with recombinant human MAO-B (monoamine oxidase-B) (Homo sapiens) for Cn1cc(-c2ccc(Cn3cnn(CC(CN)=C(F)F)c3=O)s2)cn1 [Example 296, Trifluoroacetate]
Output: > 100000 nM

Task: Enter reported IC50 observed with recombinant human MAO-B (monoamine oxidase-B) (Homo sapiens) for Cc1c(-c2cccc(-c3nc[nH]n3)c2)cccc1-n1cnn(CC(CN)=C(F)F)c1=O [Example 263, Trifluoroacetate]
Output: > 100000 nM

Task: Enter reported IC50 observed with recombinant human MAO-B (monoamine oxidase-B) (Homo sapiens) for NCC(Cn1ncn(Cc2ccc(-c3cnn(CC4CC4)c3)s2)c1=O)=C(F)F [Example 295, Trifluoroacetate]
Output: > 100000 nM

###

- target-of-assay: recombinant human DAO (diamine oxidase) (Homo sapiens, UniProt P19801)
- Construct: purchased R&D systems
- measurement-description: Activity evaluation on recombinant human DAO (Amplex Red/HRP-coupled assay, 1 mM putrescine substrate)
- Format: biochemical
- condition-description: 1 mM putrescine, read-out: Inhibitory Activity (IC50, nM) DAO
Where a name gives a salt, the structure may show the parent alone.
# Lookup of reported IC50 keyed by entry
Number only, in nM; omit the unit.

Task: # IC50 lookup, item COc1ccc(-c2ccc(Cn3cnn(CC(CN)=C(F)F)c3=O)s2)cn1 [Example 113, Trifluoroacetate]
Output: 19000

Task: # IC50 lookup, item NCC(Cn1ncn(Cc2ccc(-c3ccc(N4CCNCC4)cc3)s2)c1=O)=C(F)F [Example 106, Ditrifluoroacetate]
Output: 860

Task: # IC50 lookup, item CN(C)c1ccc(-c2ccnc(-n3cnn(CC(CN)=C(F)F)c3=O)c2)cn1 [Example 57, Trifluoroacetate]
Output: 30

Task: # IC50 lookup, item NCC(Cn1ncn(-c2ccc(F)c(F)c2)c1=O)=C(F)F [Example 3, Trifluoroacetate]
Output: 19000

Task: # IC50 lookup, item CS(=O)(=O)c1ccc(-c2ccc(Cn3cnn(CC(CN)=C(F)F)c3=O)s2)cc1 [Example 101, Trifluoroacetate]
Output: 21000

Task: # IC50 lookup, item Cc1c(-c2ccc(Cn3cnn(CC(CN)=C(F)F)c3=O)s2)ccc2c1NCCO2 [Example 139, Trifluoroacetate]
Output: 73000

###

# Lookup of reported IC50 keyed by entry
- target-of-assay: recombinant human VAP-1 (Homo sapiens, UniProt Q16853)
- Construct: purchased R&D systems
- measurement-description: Activity evaluation on recombinant human VAP-1 (Amplex Red/HRP-coupled hydrogen peroxide assay, benzylamine substrate)
- Format: biochemical
- condition-description: recombinant human VAP-1; 30 min preincubation at 37° C.; 1 mM benzylamine; read-out: Inhibitory Activity (IC50, nM) human VAP-1
Counter-ions that a name gives are not always drawn.
Number only, in nM; omit the unit.

Task: # IC50 lookup, item NCC(Cn1ncn(-c2ccc(F)cc2)c1=O)=C(F)F [Example 1, Trifluoroacetate]
Output: 2

Task: # IC50 lookup, item CS(=O)(=O)c1ccc(-c2cc(-n3cnn(CC(CN)=C(F)F)c3=O)ccn2)cc1 [Example 61, Trifluoroacetate]
Output: 0.7

Task: # IC50 lookup, item NCC(Cn1ncn(Cc2cc(Br)cs2)c1=O)=C(F)F [Example 98, Trifluoroacetate]
Output: 23

Task: # IC50 lookup, item NCC(Cn1ncn(-c2cccc(-c3ccc(N4CCNCC4)cc3)n2)c1=O)=C(F)F [Example 47, Ditrifluoroacetate]
Output: 3.5

###

# Lookup of reported log10 IC50 keyed by entry
- target-of-assay: recombinant human VAP-1 (Homo sapiens, UniProt Q16853)
- Construct: purchased R&D systems
- Sequence (Q16853 1-763): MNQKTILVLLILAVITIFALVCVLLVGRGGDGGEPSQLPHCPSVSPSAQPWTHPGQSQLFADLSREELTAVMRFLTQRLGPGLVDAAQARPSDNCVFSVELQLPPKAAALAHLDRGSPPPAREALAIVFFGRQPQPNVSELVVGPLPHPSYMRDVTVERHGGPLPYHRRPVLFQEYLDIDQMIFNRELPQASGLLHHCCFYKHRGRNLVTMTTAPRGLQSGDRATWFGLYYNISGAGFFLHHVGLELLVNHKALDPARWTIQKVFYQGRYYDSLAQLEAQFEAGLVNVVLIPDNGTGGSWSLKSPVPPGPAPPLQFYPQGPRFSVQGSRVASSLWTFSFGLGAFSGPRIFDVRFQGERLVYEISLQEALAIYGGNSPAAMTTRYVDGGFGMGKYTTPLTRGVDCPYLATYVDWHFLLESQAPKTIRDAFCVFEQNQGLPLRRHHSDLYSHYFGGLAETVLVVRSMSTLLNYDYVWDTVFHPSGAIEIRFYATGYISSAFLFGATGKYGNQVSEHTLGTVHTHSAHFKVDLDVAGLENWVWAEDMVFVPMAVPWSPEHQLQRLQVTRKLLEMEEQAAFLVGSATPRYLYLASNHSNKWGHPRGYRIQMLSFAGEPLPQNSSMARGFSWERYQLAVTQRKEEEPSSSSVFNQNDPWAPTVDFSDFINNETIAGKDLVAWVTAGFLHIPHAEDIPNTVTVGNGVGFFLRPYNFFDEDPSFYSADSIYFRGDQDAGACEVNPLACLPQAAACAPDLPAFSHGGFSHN
- measurement-description: Activity evaluation on recombinant human VAP-1 (Amplex Red/HRP-coupled hydrogen peroxide assay, benzylamine substrate)
- Type: biochemical
- condition-description: recombinant human VAP-1, benzylamine substrate; read-out: Inhibitory Activity (IC50, nM) human VAP-1
Counter-ions that a name gives are not always drawn.
Values below are the log10 of the recorded IC50, with nM as the unit.

Worked cases, log10 IC50 given:
NCC(Cn1ncn(Cc2cccc(-c3ccc4c(c3)OCO4)c2)c1=O)=C(F)F [Example 274, Trifluoroacetate] ... 0.49
NCC(Cn1ncn(Cc2ccc(-c3cnn(S(=O)(=O)C4CC4)c3)s2)c1=O)=C(F)F [Example 294, Trifluoroacetate] ... 0.46

Task: # log10 IC50 lookup, item Cc1cc(C#Cc2ccc3c(c2)NCCO3)cnc1-n1cnn(CC(CN)=C(F)F)c1=O [Example 243, Ditrifluoroacetate]
Output: -0.05

Task: # log10 IC50 lookup, item Cc1cc(C#Cc2cnn(C)c2)cnc1-n1cnn(CC(CN)=C(F)F)c1=O [Example 240, trifluoroacetate]
Output: 0.00

Task: # log10 IC50 lookup, item Cc1cc(-c2ccc3c(c2)OCCN3C)cnc1-n1cnn(CC(CN)=C(F)F)c1=O [Example 223, Trifluoroacetate]
Output: 0.18

Task: # log10 IC50 lookup, item NCC(Cn1ncn(Cc2ccc(-c3cccc(-c4nc[nH]n4)c3)s2)c1=O)=C(F)F [Example 185, Trifluoroacetate]
Output: 0.11

Task: # log10 IC50 lookup, item CCn1cc(-c2cccc(-c3cnc(-n4cnn(CC(CN)=C(F)F)c4=O)c(C)c3)c2)cn1 [Example 291, Trifluoroacetate]
Output: -0.22

Task: # log10 IC50 lookup, item CCn1cc(-c2cc(F)c(Cn3cnn(CC(CN)=C(F)F)c3=O)s2)cn1 [Example 302, Trifluoroacetate]
Output: 0.04

Task: # log10 IC50 lookup, item CCn1cc(-c2ccc3cc(Cn4cnn(CC(CN)=C(F)F)c4=O)sc3c2)cn1 [Example 204, Trifluoroacetate]
Output: -0.30

Task: # log10 IC50 lookup, item CCn1cc(-c2ccc(-c3cnc(-n4cnn(CC(CN)=C(F)F)c4=O)c(C)c3)cc2)cn1 [Example 290, Trifluoroacetate]
Output: -0.15

Task: # log10 IC50 lookup, item Cc1cc(-c2ccc(N3CCCC3=O)cc2)cnc1-n1cnn(CC(CN)=C(F)F)c1=O [Example 230, Trifluoroacetate]
Output: -0.15

Task: # log10 IC50 lookup, item NCC(Cn1ncn(Cc2ccc(-c3cnn(Cc4ccccc4)c3)s2)c1=O)=C(F)F [Example 297, Trifluoroacetate]
Output: 0.28

Task: # log10 IC50 lookup, item NCC(Cn1ncn(Cc2ccccc2-c2ccc3c(c2)OCO3)c1=O)=C(F)F [Example 282, Trifluoroacetate]
Output: 1.45

Task: # log10 IC50 lookup, item Cc1cc(-c2cccc(-n3cnn(CC(CN)=C(F)F)c3=O)c2C)cc2c1NC(=O)CC2 [Example 258, Trifluoroacetate]
Output: 0.40

Task: # log10 IC50 lookup, item Cc1cc(-c2cccc(N3CCNCC3)c2)cnc1-n1cnn(CC(CN)=C(F)F)c1=O [Example 235, Ditrifluoroacetate]
Output: 0.15

Task: # log10 IC50 lookup, item Cc1cc(-c2cnn(C(C)C)c2)cnc1-n1cnn(CC(CN)=C(F)F)c1=O [Example 252, Trifluoroacetate]
Output: 0.00

Task: # log10 IC50 lookup, item NCC(Cn1ncn(Cc2cc(-c3cnn(C(F)F)c3)cs2)c1=O)=C(F)F [Example 194, Trifluoroacetate]
Output: 0.46

Task: # log10 IC50 lookup, item CN1C(=O)CCc2cc(-c3ccc4cc(Cn5cnn(CC(CN)=C(F)F)c5=O)sc4c3)ccc21 [Example 203, Trifluoroacetate]
Output: 0.18

Task: # log10 IC50 lookup, item CCn1cc(-c2ccc(-c3ccc(Cn4cnn(CC(CN)=C(F)F)c4=O)s3)cc2)cn1 [Example 286, Trifluoroacetate]
Output: 0.15

Task: # log10 IC50 lookup, item Cc1cc(C#Cc2cnc3c(c2)NC(=O)CO3)cnc1-n1cnn(CC(CN)=C(F)F)c1=O [Example 247, Trifluoroacetate]
Output: -0.52
